// data source = patent US20250197390A1

experiment: Pharmacokinetic evaluation in beagles after intragastric administration; assay type: in vivo; details: both sexes, beagle, dog, plasma, po, 2 mg/kg, read-out: Area under curve AUC0-t
Property name: AUC(0-t) (ng·h/mL)
One number for each entry, in ng·h/mL.

Could you tell me which AUC(0-t) is on file for Nc1nc2cc(-c3ccc4c(c3)C(=O)N(Cc3cc(OC(F)(F)F)ccc3F)CCC4)ccn2n1 ?
51600

----------
assay: Pharmacokinetic evaluation in beagles after intragastric administration; format: in vivo; settings: both sexes, beagle, dog, plasma, po, 2 mg/kg, read-out: Residence time MRT
Property name: MRT (h)
Numbers only, in h.

Could you tell me which MRT is on file for Nc1nc2cc(-c3ccc4c(c3)C(=O)N(Cc3cc(OC(F)(F)F)ccc3F)CCC4)ccn2n1 ?
19.4
